- Assay Overview: Phase 1 Stage 1 clinical pharmacokinetics of SC ZA co-administered with rHuPH20
- Format: in vivo, human
- Measurement Parameters: human, serum, sc, 0.0706 mg/kg, AUC (0-48 h), Subj 38; ZA 0.0706 mg/kg SC; inf 0.554 hr; PH20 23952 U
Experimental Readout: AUC(0-t) (ng·h/mL)
Report the figure in ng·h/mL without appending any unit label.

Looking for the measured AUC(0-t) of O=P(O)(O)C(O)(Cn1ccnc1)P(=O)(O)O , can you help?
580

* * *

- Assay Overview: Phase 1 Stage 1 clinical pharmacokinetics of SC ZA co-administered with rHuPH20
- Assay type: in vivo, human
- Measurement Parameters: human, serum, sc, 0.0608 mg/kg; read-out: T½ λz (converted)
Experimental Readout: half-life (h)
Report the figure in h without appending any unit label.

Looking for the measured half-life of O=P(O)(O)C(O)(Cn1ccnc1)P(=O)(O)O [ZA] , can you help?
27.9

Attribution: patent US20090311237A1
